- Tested on: PC-3 prostate
- test: NCI-60 one-dose screen, 48 h (100 = growth as untreated, 0 = no growth, -100 = all killed)
- measurement.context: 10 µM
About 83,000 compounds went through this panel and 20% of them were active in at least one assay; those are over-represented in the sample as a whole.
T if growth is below 60%. F if not; exact matches included in F.

INSERT INTO results (compound, answer_label) VALUES
  ('Cc1ccc(S(=O)(=O)OCCN(CCOS(=O)(=O)c2ccc(C)cc2)c2c[nH]c(=O)[nH]c2=O)cc1', 'F'),
  ('c1ccc([I+]c2ccccc2)cc1', 'F'),
  ('c1ccc2c(-c3nc(N4CCOCC4)c4c5c(sc4n3)CCCCCC5)cccc2c1', 'F'),
  ('C=C(C(=O)c1ccccc1)C(NC(C)(C)C)c1ccccc1 (configuration not stated)', 'T'),
  ('Nc1cc2c(cc1Cl)-c1ccc([N+](=O)[O-])cc1/C2=N\O', 'T'),
  ('CCOC(=O)c1ccoc1', 'F'),
  ('COc1cc2cc3c(nc2cc1OC)CCN3Cc1ccc(NC(=O)Nc2cc(C(F)(F)F)cc(C(F)(F)F)c2)cc1', 'T'),
  ('COc1ccc2c(c1)C(=O)c1c-2c(=O)n(CCCN(C)C)c2cc(OC)c(OC)cc12', 'F'),
  ('O=c1cc(-c2ccccc2)[nH]n1-c1nc2ccccc2[nH]1', 'T'),
  ('CN(CCc1ccccn1)c1ccccc1', 'F'),
  ('Nc1c(C(=O)Nc2ccccc2)sc2nc3c(cc12)CCCC3', 'T'),
  ('O=C(Nc1ccc(CO)cc1)c1ccccc1Nc1ccnc(C(F)(F)F)c1', 'F'),
  ('c1ccc2c(c1)oc1c3c(ccc12)NCCC3', 'F'),
  ('CN(C)c1ccc(-c2cc(-c3cccc(NS(C)(=O)=O)c3)nc(N)c2C#N)cc1', 'T'),
  ('COc1ccc(-c2nc3sccn3c2-c2nc3c([nH]2)C(=O)c2ccccc2C3=O)cc1', 'F'),
  ('O=C(O)c1ccc(Cl)cc1Nc1ccc(F)cc1', 'F'),
  ('CCN(CC)CCOc1nc2ccccc2c2c1-c1ccc(OC)cc1C2=O', 'T'),
  ('Cc1cc(Cc2cc(C)c(O)c(C)c2)cc(C)c1O', 'F'),
  ('O=C(CC(NC(=O)OCc1ccccc1)C(=O)OCc1ccccc1)OCc1ccccc1 (configuration not stated)', 'F'),
  ('Cc1cn(C2CCCCO2)c(=O)nc1NO (configuration not stated)', 'F'),
  ('CN(C)c1ccc(/C=C/C=N/NC(=O)c2cc(O)c(O)c(O)c2)cc1', 'F'),
  ('COc1cc2c(cc1OC)N(CCO)C1=C(C(=O)OC1)C2c1ccc(Cl)c(Cl)c1 (configuration not stated)', 'F'),
  ('C(CCCC1=NCCO1)CCCC1=NCCO1', 'F'),
  ('CC1CN(Cc2ccccc2)C(=O)NC1=O (configuration not stated)', 'F'),
  ('O=C1/C(=C\c2ccc(F)cc2)CN(C(=O)c2ccc([N+](=O)[O-])cc2)C/C1=C\c1ccc(F)cc1', 'T'),
  ('CN(C)CCNC(=O)c1cccn2c(=O)c3cc4ccccc4cc3nc12', 'T'),
  ('CCCCCCCCCCCCCCCCCCOCC(COCCOCC[N+]1(CCCCCC(=O)[O-])CCCC1)Oc1ncccn1 (configuration not stated)', 'T'),
  ('Nc1c(C(=O)Nc2ccccc2)sc2nc3c(cc12)C(O)CCC3 (configuration not stated)', 'T'),
  ('COc1ccc(-c2nc3sc(-c4ccccc4)c(-c4ccccc4)n3c2/C=C/C(=O)c2ccccn2)cc1', 'T'),
  ('CCCCOc1ccc(NC(=O)Nc2nnc(C)s2)cc1', 'F');
